Exercise: for every item that follows, state its recorded IC50.
Molecular target: Inhibitor of nuclear factor kappa-B kinase subunit beta (Homo sapiens)
Sequence (O14920 whole entry): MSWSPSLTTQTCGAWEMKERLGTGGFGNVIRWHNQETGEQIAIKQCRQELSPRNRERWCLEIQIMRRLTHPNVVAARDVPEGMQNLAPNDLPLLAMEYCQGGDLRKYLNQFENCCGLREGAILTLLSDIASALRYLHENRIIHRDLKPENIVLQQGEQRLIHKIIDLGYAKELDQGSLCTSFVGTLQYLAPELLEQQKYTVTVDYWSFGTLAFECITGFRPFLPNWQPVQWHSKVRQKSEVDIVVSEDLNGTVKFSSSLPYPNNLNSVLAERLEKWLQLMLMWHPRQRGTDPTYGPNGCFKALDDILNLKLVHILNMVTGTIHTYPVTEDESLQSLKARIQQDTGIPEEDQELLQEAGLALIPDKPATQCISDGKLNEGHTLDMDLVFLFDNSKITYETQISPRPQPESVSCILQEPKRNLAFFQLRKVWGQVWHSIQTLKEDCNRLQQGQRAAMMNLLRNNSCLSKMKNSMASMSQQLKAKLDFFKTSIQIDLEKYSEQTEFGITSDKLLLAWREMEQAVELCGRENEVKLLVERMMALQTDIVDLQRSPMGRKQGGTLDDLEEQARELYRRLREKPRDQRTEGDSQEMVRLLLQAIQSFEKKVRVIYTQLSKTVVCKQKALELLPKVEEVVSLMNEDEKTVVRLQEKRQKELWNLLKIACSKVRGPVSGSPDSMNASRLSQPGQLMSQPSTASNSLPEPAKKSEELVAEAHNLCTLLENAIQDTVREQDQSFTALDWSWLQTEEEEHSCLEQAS
Assay: Inhibition of IKK2

> print(dat)
                      structuresmilesstring  assayvalue
1  CN1CCN(c2ccc(OC(F)(F)F)c(Nc3nccc(-c4cc5c(n4C)CCNC5=O)n3)c2)CC1     > 10 µM

query: Identify IC50 associated with the molecule CN1CCN(c2ccc(OC(F)(F)F)c(Nc3nccc(-c4cc(C(N)=O)cn4C)n3)c2)CC1
result: > 10 µM
